target: 3',5'-cyclic-AMP phosphodiesterase 4B (Homo sapiens, UniProt Q07343); experiment: Inhibition of human recombinant PDE4B using [3H]cAMP by packard topcount scintillation counting analysis
Sequence (Q07343 whole entry): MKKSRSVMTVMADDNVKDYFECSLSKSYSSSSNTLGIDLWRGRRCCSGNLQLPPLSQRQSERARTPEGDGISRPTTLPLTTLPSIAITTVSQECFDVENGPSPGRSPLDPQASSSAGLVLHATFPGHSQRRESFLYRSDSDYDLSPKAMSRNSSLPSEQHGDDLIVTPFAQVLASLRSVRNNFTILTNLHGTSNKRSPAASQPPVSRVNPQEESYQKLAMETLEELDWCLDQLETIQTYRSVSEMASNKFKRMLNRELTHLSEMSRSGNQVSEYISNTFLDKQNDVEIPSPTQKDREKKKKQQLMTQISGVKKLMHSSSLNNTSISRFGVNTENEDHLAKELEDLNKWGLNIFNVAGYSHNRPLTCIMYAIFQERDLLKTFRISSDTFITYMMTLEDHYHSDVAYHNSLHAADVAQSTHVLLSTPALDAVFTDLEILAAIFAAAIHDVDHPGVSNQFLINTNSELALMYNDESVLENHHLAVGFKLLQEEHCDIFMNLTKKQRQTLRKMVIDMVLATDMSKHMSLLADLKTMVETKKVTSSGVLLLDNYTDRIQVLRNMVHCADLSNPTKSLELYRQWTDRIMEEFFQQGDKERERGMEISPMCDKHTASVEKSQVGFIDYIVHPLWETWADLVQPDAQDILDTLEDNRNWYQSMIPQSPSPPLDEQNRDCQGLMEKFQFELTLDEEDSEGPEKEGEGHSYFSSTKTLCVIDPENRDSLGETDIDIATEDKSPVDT
pIC50: −log10 of the molar value.
endpoint: pIC50

| molecularString | endpoint | qualifierOperator | observedValue |
| --- | --- | --- | --- |
| Cc1cc(C(=O)N[C@H]2CC[C@@H](NC(=O)c3cc(F)cnc3Oc3cccc(-c4ccc(CCN5CCC(N6CCCC6)CC5)cc4)c3)CC2)nn1C | pIC50 | = | 10.40 |
| O=C(N[C@H]1CC[C@@H](NC(=O)c2cc(F)cnc2Oc2cccc(-c3ccc(O)cc3CN3CCOCC3)c2)CC1)c1cncc(O)c1 | pIC50 | = | 8.60 |
| Cc1cccc2nc(C(=O)N[C@H]3CC[C@@H](NC(=O)c4cc(F)cnc4Oc4cccc(-c5ccc(CN6CCC(N7CCCC7)CC6)cc5)c4)CC3)cn12 | pIC50 | = | 10.40 |
| O=C(N[C@H]1CC[C@@H](NC(=O)c2nc3ccccc3[nH]c2=O)CC1)c1cc(F)cnc1Oc1cccc(-c2ccc(O)cc2CN2CCOCC2)c1 | pIC50 | = | 9.50 |
| Cc1csc(C(=O)N[C@H]2CC[C@@H](NC(=O)c3cc(F)cnc3Oc3cccc(-c4ccc(CN5C[C@@H](C)N[C@@H](C)C5)cc4)c3)CC2)n1 | pIC50 | = | 10.50 |
| CN(C)Cc1cc(O)ccc1-c1cccc(Oc2ncc(F)cc2C(=O)N[C@H]2CC[C@@H](NC(=O)c3cccc4ocnc34)CC2)c1 | pIC50 | = | 9.50 |
| COc1cccc(Nc2c(C(N)=O)cnc3c(C)cc(S(=O)(=O)c4cccc(C(=O)N(C)C)c4)cc23)c1 | pIC50 | > | 11.00 |

====

assay: Fraction unbound in human plasma; assay type: ADME, cell-free
Items are presented alongside their recorded fraction unbound.

| molecularString | fraction unbound |
| --- | --- |
| Cc1cc(C(=O)N[C@H]2CC[C@@H](NC(=O)c3cc(F)cnc3Oc3cccc(-c4ccc(CN5C[C@@H](C)N[C@@H](C)C5)cc4)c3)CC2)nn1C | 0.11 |
| Cc1ccc(O)c(C(=O)N[C@H]2CC[C@@H](NC(=O)c3cc(F)cnc3Oc3cccc(-c4ccc(CN5C[C@@H](C)N[C@@H](C)C5)cc4CN4CCOCC4)c3)CC2)c1 | 0.013 |
| Cc1cc(C(=O)N[C@H]2CC[C@@H](NC(=O)c3cc(F)cnc3Oc3cccc(-c4ccc(O)cc4CN4CCOCC4)c3)CC2)nn1C | 0.056 |
| Cc1cc(C(=O)N[C@H]2CC[C@@H](NC(=O)c3cc(F)cnc3Oc3cccc(-c4cc(O)cc(CN5C[C@@H](C)N[C@@H](C)C5)c4)c3)CC2)nn1C | 0.35 |
| Cc1cccc2nc(C(=O)N[C@H]3CC[C@@H](NC(=O)c4cc(F)cnc4Oc4cccc(-c5ccc(CN6C[C@@H](C)N[C@@H](C)C6)cc5)c4)CC3)cn12 | 0.012 |
| Cc1cc(C(=O)N[C@H]2CC[C@@H](NC(=O)c3cc(F)cnc3Oc3cccc(-c4ccc(CN5C[C@@H](C)N[C@@H](C)C5)c(O)c4)c3)CC2)nn1C | 0.12 |

====

Reported microsomal CLint values are given for each entry in this list.
assay: Intrinsic clearance in human liver microsomes; format: ADME; conditions: read-out: CLH

| molecularString | microsomal CLint |
| --- | --- |
| Cc1cc(C(=O)N[C@H]2CC[C@@H](NC(=O)c3cc(F)cnc3Oc3cccc(-c4ccc(O)cc4CN4CCOCC4)c3)CC2)nn1C | > 150 µL/min/mg |
| COc1cccc(Nc2c(C(N)=O)cnc3c(C)cc(S(=O)(=O)c4cccc(C(=O)N(C)C)c4)cc23)c1 | > 150 µL/min/mg |
| Cc1csc(C(=O)N[C@H]2CC[C@@H](NC(=O)c3cc(F)cnc3Oc3cccc(-c4ccc(CN5C[C@@H](C)N[C@@H](C)C5)cc4CN4CCOCC4)c3)CC2)n1 | > 150 µL/min/mg |
